Data credit: the supplement of paper PMC11061612

# Tested on: SU-DHL-10 (B-Cell Non-Hodgkin's Lymphoma)
# test-protocol: combination Emax (second highest fraction inhibited in the dose matrix, 72 h); higher = more inhibition; extreme values may be limits of the assay
So I've got a bunch of compounds here, and I need their combination Emax values.

Hello, I would appreciate it if you could give combination Emax for each entry below.
1. CC1(C)CCC(CN2CCN(c3ccc(C(=O)NS(=O)(=O)c4ccc(NCC5CCOCC5)c([N+](=O)[O-])c4)c(Oc4cnc5[nH]ccc5c4)c3)CC2)=C(c2ccc(Cl)cc2)C1 [Venetoclax] + COc1cc(Nc2ncc3c(n2)-c2ccc(Cl)cc2C(c2c(F)cccc2OC)=NC3)ccc1C(=O)O [Alisertib] (first compound max 1 µM, 7x7, partner max 10 µM)
2. C[C@@H]1COCCN1c1cc(C2([S@](C)(=N)=O)CC2)nc(-c2ccnc3[nH]ccc23)n1 [AZD6738] + O=C(c1cc(Cc2n[nH]c(=O)c3ccccc23)ccc1F)N1CCN(C(=O)C2CC2)CC1 [Olaparib] (first compound max 10 µM, 7x7, partner max 10 µM)
3. C=CCn1c(=O)c2cnc(Nc3ccc(N4CCN(C)CC4)cc3)nc2n1-c1cccc(C(C)(C)O)n1 [AZD1775] + C[C@@H]1COCCN1C2=NC(=NC(=C2)C3(CC3)[S@](=N)(=O)C)C4=C5C=CNC5=NC=C4 [AZD6738] (first compound max 1 µM, partner max 10 µM)
4. Cc1c2c(nn1C)CSCc1cc(n(C)n1)CSc1cc(c3ccccc3c1)OCCCc1c(C(=O)O)n(C)c3c-2c(Cl)ccc13 [AZD5991] + Cc1cc2ncnn2cc1Nc1ncc2c(n1)n(C1CCOCC1)c(=O)n2C [AZD7648] (first compound max 1 µM, 7x7, partner max 10 µM)

1: 0.827; 2: 0.944; 3: 1; 4: 1
